B1: NP_002788.1 (parent)
chain: DGWIRVSSDNVADLHEKYSGSTP

Variants of: B1
procedure-text: protein stability index of a GFP-peptide fusion (GPS, HEK-293T) (PSI 1-6); higher = more stable;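 also: lentivirally expressed fusion library, cells FACS-sorted into six equal-sized GFP/DsRed ratio bins, PSI computed from sequencing read fractions per bin weighted by bin number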
condition-description: c terminus: native
Please respond with reported protein stability index for every item in the list.
API doc: respond with a numeric literal and nothing else, no unit.

Tell me the measured protein stability index of S7Q , please.
3.86

Same question for K17P please.
3.69

Same question for G20D please.
4.65

Same question for D1V please.
2.36

Same question for Y18W please.
2.81

Same question for S19T please.
2.47

Same question for D1I please.
2.92

Same question for I4M please.
3.39

Same question for Y18I please.
3.11

Same question for T22W please.
2.81

Same question for I4H please.
4.58

Same question for S7P please.
4.54

Same question for Y18P please.
4.33

Same question for D1W please.
2.8

Same question for Y18S please.
3.6

Same question for S7C please.
2.07

Same question for D13V please.
2.75

Same question for H15I please.
2.68

Same question for S7A please.
2.32

Same question for Y18D please.
3.64

Same question for G2W please.
2.27

Same question for P23F please.
4.29
